System: HCT-15 colon
Assay: NCI-60 one-dose screen, 48 h
Conditions: 10 µM unless noted
Description: Growth inhibition of the HCT-15 human tumor cell line is measured as a screen for anti-cancer activity. Cells are grown in 96 well plates and exposed to the test compound for 48 hours. Compounds are tested at a single concentration, which is 10^-5 M for most compounds. The reported endpoint is percent growth (GI% or GIPRCNT), where numbers from 0 - 100% represent growth inhibition, and numbers from -100% - 0 represent cell death. For example, a value of 40 represents 60% growth inhibition. […]
About 83,000 compounds went through this panel and 20% of them were active in at least one assay; those are over-represented in the sample as a whole. Calls of active or inactive are those of the source. How the source made its calls: active means growth percent below 10; inactive means the rest.
Response enum: y (active), n (inactive)

Illustrative cases are given below, each with its answer.
>  <COMPOUND>
Cc1cc(-c2cc(O)ccc2Cl)cc2nnc(Nc3ccc(OCCN4CCCC4)cc3)nc12

>  <ASSIGNED CLASS>
y

$$$$
>  <COMPOUND>
CS(=O)(=O)N1CCN(Cc2cc3nc(-c4cccc5[nH]ncc45)nc(N4CCOCC4)c3s2)CC1

>  <ASSIGNED CLASS>
n

$$$$
>  <COMPOUND>
N#Cc1c(-c2ccc(C(F)(F)F)cc2)cc(NCC2CCS(=O)(=O)CC2)n2c1nc1ccccc12

>  <ASSIGNED CLASS>
n

$$$$
>  <COMPOUND>
COC(=O)CC[C@@H](C)[C@H]1CC[C@H]2C3CC[C@@H]4C[C@@H]5CC[C@]4(C)[C@@]3(O5)[C@H](Br)[C@@H](Br)[C@]12C (some centres undefined)

>  <ASSIGNED CLASS>
n

$$$$
>  <COMPOUND>
COc1cc2c3c(c1)nc(C)n3CCC2

>  <ASSIGNED CLASS>
n

$$$$

What outcome does the record of this test show for CC(=Nc1ccccc1)C1=C(O)C(Cc2ccc(O)cc2)NC1=O (centres undefined) ?
n

What did this assay record as the result for C=CC(=O)N1CCC[C@@H](n2nc(-c3ccc(Oc4ccccc4)cc3)c3c(N)ncnc32)C1 ?
n

====

test system: OVCAR-4 ovarian; assay: NCI-60 one-dose screen, 48 h; conditions: 10 µM unless noted
Compounds without any hit were thinned out: in the full panel of roughly 83,000, 20% have a hit. Activity calls are given as the source filed them. The calls were made as follows: active = growth percent below 10; inactive = the rest.
Pick from class 1 = active, class 0 = inactive when you respond.

>  <MOLECULE>
CNC(=O)c1cc(COc2nnc(Nc3ccc(Cl)cc3)c3ccoc23)ccn1

>  <MEASURED ON>
OVCAR-4 ovarian

>  <ASSIGNED CLASS>
class 1

$$$$
>  <MOLECULE>
COC[C@@H](C)n1c(C2CCOCC2)nc2c1C1C=C(OC)C(c3c(C)noc3C)=CC1N=C2 (some centres undefined)

>  <MEASURED ON>
OVCAR-4 ovarian

>  <ASSIGNED CLASS>
class 0

$$$$
>  <MOLECULE>
Nc1c2c(c(O)c3c1=C(CO)C=N3)=NCCS2

>  <MEASURED ON>
OVCAR-4 ovarian

>  <ASSIGNED CLASS>
class 1

$$$$
>  <MOLECULE>
COC(=O)[C@]12CC[C@@H](C)[C@H](C)[C@@H]1C1=CC[C@@H]3[C@@]4(C)C(C=O)=C[C@@](C)(COS(C)(=O)=O)C4=CC[C@@]3(C)[C@]1(C)CC2

>  <MEASURED ON>
OVCAR-4 ovarian

>  <ASSIGNED CLASS>
class 1

$$$$
>  <MOLECULE>
O=C(Cc1ccccc1)Nc1nnc(NC2CCN(c3nnc(NC(=O)Cc4ccccc4)s3)CC2)s1

>  <MEASURED ON>
OVCAR-4 ovarian

>  <ASSIGNED CLASS>
class 0

$$$$
>  <MOLECULE>
CCN1CCN(Cc2ccc(Cc3ncc(F)c(-c4cc(F)c5nc(C)n(C(C)C)c5c4)n3)nc2)CC1

>  <MEASURED ON>
OVCAR-4 ovarian

>  <ASSIGNED CLASS>
class 0

$$$$
>  <MOLECULE>
CCN(CC)CCN1C(=O)c2cccc3c(-c4ccc5c(c4)ncn5C4CCCCC4)ccc(c23)C1=O

>  <MEASURED ON>
OVCAR-4 ovarian

>  <ASSIGNED CLASS>
class 0

$$$$
>  <MOLECULE>
CSc1nc2ncnc(SC)c2[nH]1

>  <MEASURED ON>
OVCAR-4 ovarian

>  <ASSIGNED CLASS>
class 0

$$$$
>  <MOLECULE>
CN(C)C1CCN(C(=O)c2ccc(NC(=O)Nc3ccc(-c4nc(N5CCOCC5)nc(N5CCOCC5)n4)cc3)cc2)CC1

>  <MEASURED ON>
OVCAR-4 ovarian

>  <ASSIGNED CLASS>
class 1

$$$$
>  <MOLECULE>
CC12O[C@H](C[C@@H](OC(=O)CCC(=O)O)[C@H]1O)n1c3ccccc3c3c4c(c5c6ccccc6n2c5c31)C(=O)NC4=O

>  <MEASURED ON>
OVCAR-4 ovarian

>  <ASSIGNED CLASS>
class 0

$$$$

Hi team, can someone confirm the assay call for C/C(=C(/c1ccc(Cl)cc1)c1ccc(OCCN2CCCCCC2)cc1)c1ccccc1 ?
class 0

Just curious, what result did NC[C@@](O)(c1ccc(Cl)cc1)c1ccc(-c2cn[nH]c2)cc1 get here?
class 0

Which outcome was entered for the molecule COc1ccc(C(=O)N2c3ccccc3Sc3ccccc32)c(F)c1 in this test?
class 0

====

test system: M14 melanoma; assay: NCI-60 one-dose screen, 48 h; conditions: 10 µM unless noted
The panel holds about 83,000 compounds, 20% with a hit somewhere; the sample as a whole holds those more often. Activity calls are given as the source filed them. Rule for the calls: active = growth percent below 10; inactive = the rest.
# valid calls are YES (active), NO (inactive); nothing else

# count of solved cases: 3
>  <COMPOUND>
O=C1NC(=O)C(c2cnc3ccccn23)=C1c1cn2c3c(cc(F)cc13)CN(C(=O)N1CCCCC1)CC2

>  <MEASURED ON>
M14 melanoma

>  <ASSIGNED CLASS>
NO

$$$$
>  <COMPOUND>
O=C(NO)c1ccc(Cn2c(=O)n(-c3ccccc3F)c(=O)c3ccccc32)cc1

>  <MEASURED ON>
M14 melanoma

>  <ASSIGNED CLASS>
YES

$$$$
>  <COMPOUND>
C=CCCCOC1[C@H](OCc2ccccc2)C(OCc2ccccc2)C(OC)O[C@@H]1CNC(=O)c1cccc(I)c1 (some centres undefined)

>  <MEASURED ON>
M14 melanoma

>  <ASSIGNED CLASS>
NO

$$$$

Give the logged outcome of this assay for the following compound: COc1ccc(-c2ccc3c(N4CCOC[C@@H]4C)nc(N4CCOC[C@@H]4C)nc3n2)cc1CO
YES

====

system: HOP-62 NSCLC; test: NCI-60 one-dose screen, 48 h (100 = growth as untreated, 0 = no growth, -100 = all killed); conditions: 10 µM unless noted
About 83,000 compounds went through this panel and 20% of them were active in at least one assay; those are over-represented in the sample as a whole.
Tick yes (1) if growth is 30% or greater. Tick no (0) if growth is less than 30%.

>  <COMPOUND>
Cn1cnc2c(F)c(Nc3ccc(Br)cc3Cl)c(C(=O)NOCCO)cc21

>  <ASSIGNED CLASS>
no (0)

$$$$

Is growth for COc1cnc2c(c1)C(=O)c1c-2n(CCCNC2=NCCS2)c(=O)c2cc(Cl)ccc12 at or above 30%?
no (0)

Does the compound COc1ccc2c(CCc3ccc(Cl)cc3)c3[n+](cc2c1OC)CCc1cc2c(cc1-3)OCO2 have recorded growth that is 30% or more?
yes (1)

Decide: is the reported value of growth for CNC(=O)c1cc(Oc2ccc(NC(=O)Nc3ccc(Cl)c(C(F)(F)F)c3)c(F)c2)ccn1 equal to or greater than 30%?
no (0)

Form field: growth at least 30%? Entry: COC(=O)[C@@H](OC)[C@@H]1Cc2cc3cc(OC4CC(OC5CC(O)C(O)C(C)O5)C(O)C(C)O4)c(C)c(O)c3c(O)c2C(=O)[C@H]1OC1CC(OC2CC(OC3CC(C)(O)C(O)C(C)O3)C(O)C(C)O2)C(O)C(C)O1 (some centres undefined)
no (0)

Would you say O=C1NC(=O)[C@@H](c2cn3c4c(cccc24)CCC3)[C@@H]1c1c[nH]c2ccccc12 shows growth at minimum 30%?
no (0)

# check: growth of COc1cc2ncnc(Nc3ccc(F)c(Cl)c3)c2cc1NC(=O)/C=C/CN1CCCCC1 is greater than or equal to 30%
no (0)

Tell me whether growth is at least 30% here: NC1=Nc2ccccc2N(O)N1
yes (1)

Can CC(C)(C)C(=O)OCOP(=O)(OCOC(=O)C(C)(C)C)C1CCCN(OC(=O)c2ccccc2)C1=O (centres undefined) be said to have growth at or above 30%?
no (0)

Identify whether the reported growth of the following compound is 30% or greater: O=C1CC(c2ccc3c(c2)OCO3)c2ncn(-c3ccc(Cl)cc3)c2N1 (centres undefined)
yes (1)

In plain terms: is recorded growth at least 30% for COc1ccc(CCCc2c3[n+](cc4c(OC)c(OC)ccc24)CCc2cc4c(cc2-3)OCO4)cc1 ?
yes (1)

Check if growth >= 30% (inclusive). Item: CC(N)C(Cc1ccccc1)c1ccc(Cl)cc1 (centres undefined)
yes (1)

Please tell me: is the compound COc1cc2ncnc3c2cc1OCCCCCN(C)Cc1ccc(Br)cc1N3 at or over 30% in terms of growth?
yes (1)

Confirm if growth reported for the compound C#Cc1cccc(Nc2ncnc3cc(OCCOC)c(OCCOC)cc23)c1 is 30% or above.
yes (1)

Check this compound for growth at or above 30%: O=C(O)c1ccc2c(c1)nc(Nc1cccc(Cl)c1)c1ccncc12
no (0)

Decide: is the reported value of growth for N#Cc1c(-c2ccc(C(F)(F)F)cc2)c(F)c(NCCC2CCC(O)C2)n2c1nc1ccccc12 (centres undefined) equal to or greater than 30%?
yes (1)

// inclusive: growth at least 30%? input: C=CC[n+]1c(/C=C/C=C2\N(C)c3ccccc3C2(C)C)sc2ccc(OC)cc21
no (0)

In plain terms: is recorded growth at least 30% for COc1cc2cc(NCc3ccc(F)cc3)nc(C)c2cc1OC ?
yes (1)

growth >= 30% for COc1cnc2c(c1)C(=O)c1c-2n(CCCN2CCOCC2)c(=O)c2cc(Cl)ccc12 ?
no (0)

Could you verify whether the entry COc1ccc(-c2nc(N)ncc2Oc2ccccc2OC)c(O)c1 shows growth of no less than 30%?
no (0)
